System: PC-3
Experiment summary: NCI tumour cell line growth inhibition, 48 h
The source made the active and inactive calls. Rule as the data show it: active = GI50 up to about 1.1 µM and inactive = higher. Where a SMILES comes first, the peptide text is derived from it. [ ]: non-standard residue; d: D form. 2Nal = N[CH](Cc1ccc2ccccc2c1)C(=O)O
Outcomes: active, inactive

Compound | Experimental target | Class name
CSc1cc(Cl)c(C)cc1S(=O)(=O)NC(=O)NNc1ccc(F)c(Cl)c1 | PC-3 | inactive
CC(NNC(=O)c1cc[n+]([BH2-]C#N)cc1)c1cccc(C(F)(F)F)c1 (stereo not drawn) | PC-3 | inactive
Clc1cc(-c2ccccc2)nc2ccccc12 | PC-3 | inactive
CCOc1ccc(NC(=O)/C(=N\N)C(C(=O)OC)c2nc3ccc(Cl)cc3nc2O)cc1 (stereo not drawn) | PC-3 | inactive
COc1cc(C2c3cc4c(cc3OC(N3CCCC3)C2C)OCO4)cc(OC)c1OC (stereo not drawn) | PC-3 | active
N#Cc1c2c(c(N3CCOCC3)n3c1nc1ccccc13)CCCC2 | PC-3 | inactive
CC(NC(=O)C(N)Cc1ccccc1)C(=O)NC(Cc1ccc(O)cc1)C(=O)NC(Cc1c[nH]c2ccccc12)C(=O)NC(CCCCN)C(=O)NC(C(=O)NC(C)C(=O)NC(Cc1ccc2ccccc2c1)C(N)=O)C(C)C (stereo not drawn) (H-FAYWKVA[2Nal]-NH2; configuration not given here) | PC-3 | inactive
COc1ccc(N2C(=O)C(=O)N(c3ccc(/N=N\c4ccccc4)cc3)C2=S)cc1 | PC-3 | inactive

###

Tested on: MOLT-4
Experiment summary: NCI tumour cell line growth inhibition, 48 h
Activity calls are given as the source filed them. No stated cut-off is given here; in the data, active = GI50 up to about 1.1 µM and inactive = higher.
As shown below, each of these compounds has a reported GI50 value.

Compound | GI50
N#Cc1nc(-c2ccsc2)oc1N | > 100 µM (inactive)
CC(C)CCCC(C)[C@H]1CCC2[C@@H]3CCC4Cc5nc6c(nc5C[C@]4(C)C3CC[C@@]21C)CC1CC[C@@H]2C(CC[C@@]3(C)C2CC[C@@H]3O)[C@@]1(C)C6 (stereo partly specified) | > 100 µM (inactive)
O=C1c2ccccc2CC12Cc1ccccc1C2 | 35.7 µM (inactive)
Nc1cccnc1NCC1(CO)CCCC1 | > 100 µM (inactive)
O=C(O)Cc1cccc2c1Oc1ccccc1S2 | > 100 µM (inactive)
NS(=O)(=O)c1ccc(NC(=O)CC(=O)Nc2ccc(S(N)(=O)=O)cc2)cc1 | > 100 µM (inactive)
Cc1cn(C(Cc2ccccc2)OCCO)c(=O)[nH]c1=O (stereo unspecified) | > 100 µM (inactive)
COc1cccc2c1C(=O)c1c(O)c3c(c(O)c1C2=O)C[C@H](O)C[C@@H]3OC1CC(N)C(O)C(C)O1 (stereo partly specified) | < 0.01 µM (active)
Cc1ccc(/N=N/c2c(O)ccc3ccccc23)c(C)c1 | > 100 µM (inactive)
O=[N+]([O-])c1ccc(C2Nn3c(nnc3-c3cccc([N+](=O)[O-])c3)S2)cc1 (stereo unspecified) | 37.8 µM (inactive)
c1nc(N2CC2)c2cnn(C3CCCCO3)c2n1 (stereo unspecified) | > 100 µM (inactive)
COc1cc2c3c(c1)c1cc(OC)c(OC)cc1c[n+]3CC2 | 2 µM (inactive)
O=C(c1cccs1)c1nccc2c1cnc1ccccc12 | > 100 µM (inactive)
CCN(CC)CCCn1c(=O)c2ccccc2n2c3c(=O)n(C)c(=O)n(C)c3nc12 | 0.619 µM (active)
COC(=O)C1=C(O)C(C(=O)OC)[C@@]2(O)[C@@H](C(=O)OC)C(c3ccc(OC(=O)/C(=C/c4ccc(Cl)cc4)c4ccc(Cl)cc4)cc3)C[C@@H]1[C@@H]2C(=O)OC (stereo partly specified) | 4.45 µM (inactive)
Cc1cc(C)n(C(C)(C(=O)Cc2ccccc2)n2nc(C)cc2C)n1 | > 100 µM (inactive)
CC(=O)O[C@]12CCCCCC1C1(O)C(O)CCCC[C@H]12 (stereo partly specified) | > 100 µM (inactive)
CNC1C(O)CC(OC2C/C=C(\C)C/C(C)=C/C=C/CCC(C)CNC(=O)/C=C/C=C/C2C)OC1C (stereo unspecified) | 0.161 µM (active)
CNC(=S)N/N=C/c1cccc(C)n1 | 39.8 µM (inactive)
COc1ccc(CCNC(=O)[C@H]2CCCC[C@@H]2CCO)cc1OC | > 100 µM (inactive)
O=C1NC(=O)[C@@H](OCC2CCCCC2)[C@@H]2OCC3OC(C(O)C3O)C12 (stereo partly specified) | > 100 µM (inactive)
